Each item that follows carries a reported abundance fitness.
B1: Far upstream element-binding protein 3, residues 75 to 150; numbered along this chain, Q96I24 (parent)
chain: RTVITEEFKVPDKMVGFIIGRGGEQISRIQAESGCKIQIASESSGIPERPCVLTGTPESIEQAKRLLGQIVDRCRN

Variants of: B1
Assay: abundance fitness (aPCA) (normalised: wild type 0, dead -1); higher = more abundant; growth selection in yeast, the domain comes from the species named
Conditions: Homo sapiens
measurement_name: abundance fitness

monomer_sequence="RTVITEEFKVPDKMVGFIIGRGGEQISRIQAESPCKIQIASESSGIPERPCVLTGTPESIEQAKRLLGQIVDRCRN [G34P]" observed_measurement=-0.775
monomer_sequence="RTVITEEFKVPDKMVGFIIGRGGEQISRIQAESGCKIQIASESSGIPERPCVLTGTPESIEQAKRLLGQIVDICRN [R73I]" observed_measurement=-0.136
monomer_sequence="RTVITEEFKVPDKMVGFIIGRGGEQISRIQAESGCKIQIASESSGIPERPCVLTGTPESIEQAKRLLGQIVDRCWN [R75W]" observed_measurement=0.007
monomer_sequence="RTVITEECKVPDKMVGFIIGRGGEQISRIQAESGCKIQIASESSGIPERPCVLTGTPESIEQAKRLLGQIVDRCRN [F8C]" observed_measurement=-0.317
monomer_sequence="RTVITEEFNVPDKMVGFIIGRGGEQISRIQAESGCKIQIASESSGIPERPCVLTGTPESIEQAKRLLGQIVDRCRN [K9N]" observed_measurement=-0.109
monomer_sequence="RTVITEEFKVPDKMVGFIIGRGGEQISRIQAESGCKIQIASESSGIPERPCVLTGTPESIEQAKRELGQIVDRCRN [L66E]" observed_measurement=-0.079
monomer_sequence="RTVITEEFKVPDKMVGFIIGRGGEQISRIQAESGCKIQIASESSGIPERMCVLTGTPESIEQAKRLLGQIVDRCRN [P50M]" observed_measurement=-0.04
monomer_sequence="RTVITEEFKVPDKMVGFIIGRGGEQISRIQAESGCKIQIASESSGIPERPCVLTYTPESIEQAKRLLGQIVDRCRN [G55Y]" observed_measurement=-1.28
monomer_sequence="RTVITEEFKVPDKMVGFIICRGGEQISRIQAESGCKIQIASESSGIPERPCVLTGTPESIEQAKRLLGQIVDRCRN [G20C]" observed_measurement=-0.459
monomer_sequence="RTVITEEFKVPDKMVGFIIGRGGEQIERIQAESGCKIQIASESSGIPERPCVLTGTPESIEQAKRLLGQIVDRCRN [S27E]" observed_measurement=-0.014
monomer_sequence="RTVITEEFKVPDKMVGFIIGRGGEQISRIQAESGCKIQIASESSGIPERPCVLTGTPESIEQAKRLLGQHVDRCRN [I70H]" observed_measurement=-0.096
monomer_sequence="RTVITEEFKVPDKMVGFIIGRGGEQISRIQAESGLKIQIASESSGIPERPCVLTGTPESIEQAKRLLGQIVDRCRN [C35L]" observed_measurement=-0.763
monomer_sequence="RTVITEEFKVPMKMVGFIIGRGGEQISRIQAESGCKIQIASESSGIPERPCVLTGTPESIEQAKRLLGQIVDRCRN [D12M]" observed_measurement=-0.144
monomer_sequence="RTVITEEFKVPDKMVGFIIGRGGEQISRIQAESGCKIQIASESSGPPERPCVLTGTPESIEQAKRLLGQIVDRCRN [I46P]" observed_measurement=0.016
monomer_sequence="RTVITEEFKVPDKMVGFIIGRGGEQISRIQAESGCKIQIASESSGIPERPCVLTGTPESIECAKRLLGQIVDRCRN [Q62C]" observed_measurement=-0.011
monomer_sequence="RTVITEEFKVPDKMVGFIIGRGGEQISRIQAESGCKIQIASESSGIPERPCVLTGTAESIEQAKRLLGQIVDRCRN [P57A]" observed_measurement=-0.013
monomer_sequence="RTVITEEFKVPDKMVGFIIGRGGEQISRIQAESGCKIQIASESSGIPERPCVLTGTPESIEQAKRLLGQIVDFCRN [R73F]" observed_measurement=-0.103
monomer_sequence="RTVITEEFKVPDKIVGFIIGRGGEQISRIQAESGCKIQIASESSGIPERPCVLTGTPESIEQAKRLLGQIVDRCRN [M14I]" observed_measurement=-0.33
monomer_sequence="RTVITEEFKVPDKMGGFIIGRGGEQISRIQAESGCKIQIASESSGIPERPCVLTGTPESIEQAKRLLGQIVDRCRN [V15G]" observed_measurement=-0.135
monomer_sequence="RTVITEEFKVPDKMVGFIIGRGGEQISRIQAESGCKIQIASESSGIPERPCVLTGTPESIEQAKRLLGQIVPRCRN [D72P]" observed_measurement=-0.142
monomer_sequence="RTVITEEFKVPDKMVGFIIGRGGEQIIRIQAESGCKIQIASESSGIPERPCVLTGTPESIEQAKRLLGQIVDRCRN [S27I]" observed_measurement=-0.187
monomer_sequence="RTVITEEFKVPDKMVGFIIGRGGEQISRIQAESWCKIQIASESSGIPERPCVLTGTPESIEQAKRLLGQIVDRCRN [G34W]" observed_measurement=-0.665
